experiment: gradient 5% acetonitrile 3 min, to 50% in 2 min, to 85% in 15 min, held 3 min, 100 µL/min; conditions: column: Zorbax Extend-C18 2.1 x 50 mm; eluents: water / acetonitrile, 0.1% formic acid
Outcome label depends on RP-LC retention time relative to 800 s: at/above gives class 1, below gives class 0.

# count of solved cases: 6
molecule	group
COC(=O)c1ccc(NC(=O)Cc2csc3nc(-c4ccc(C)c(C)c4)cn23)cc1	class 1
Cc1cccc(OCc2nc(-c3ccc(-c4csc(C)n4)cc3)no2)c1	class 1
N#Cc1ccc(NC(=O)C2Oc3ccccc3NC2=O)cc1 (centres undefined)	class 0
O=C(c1cc2ccccc2[nH]1)N1CCC2(CC1)N=C(c1ccc(Br)cc1)NO2	class 1
COc1ccc(N2CCN(CC(=O)Nc3ccc4c(c3)Cc3ccccc3-4)C2=O)cc1	class 1
Cc1cc(NC(=O)c2cc(Cl)ccc2Cl)n(C(C)C)n1	class 0

[in] Tell me whether RP-LC retention time is at least 800 s here: COc1ccc(-n2c(N)cc(=O)nc2SCC(=O)Nc2cc(C)on2)cc1
[out] class 0

[in] # repeat for COc1cccc(NC(=O)N(C)CCc2noc(COc3ccccc3F)n2)c1
[out] class 0

[in] # repeat for O=C1CCCCC(Cc2ccccc2)(C(=O)Nc2cccnc2)N1 (centres undefined)
[out] class 0

[in] # repeat for CNC(=O)[C@H]1O[C@@H](n2cnc3c(NCc4cccc(I)c4)ncnc32)C(O)C1O (some centres undefined)
[out] class 0

[in] # repeat for O=C(NC1CCCCCC1)C1CCCN(C(=O)c2ccc(Cl)cc2)C1 (centres undefined)
[out] class 1

[in] # repeat for NC(=O)c1ccc(Oc2ccc(C(N)=O)cc2)cc1
[out] class 0
